- Method Notes: AUC (ng h/mL) value after oral administration of 10 mg/kg in guinea pig.
- Assay type: ADME, organism-based, Cavia porcellus
- Set-up: dose 10 mg/kg, route oral
- Condition Notes: plasma

{"columns": ["Smiles Representation", "AUC [ng·h/mL]"],
 "data": [
  ["CCOC(=O)Cc1cc2ccc(NC(=O)c3ccc(C(=N)N)cc3)cc2cn1", 1580],
  ["CCOC(=O)Cn1ccc2cc(NC(=O)c3ccc(C(=N)N)cc3)ccc2c1=O", 543]
]}

====

- Method Notes: Cmax (ng /mL) value after oral administration of 10 mg/kg in guinea pig.
- Format: ADME, organism-based, Cavia porcellus
- Design: dose 10 mg/kg, route oral
- Condition Notes: in vivo
Entries and their measured Cmax follow.
Quantity Measured: Cmax (ng/mL)

{"columns": ["Smiles Representation", "Measured Result"],
 "data": [
  ["CCOC(=O)Cn1ccc2cc(NC(=O)c3ccc(C(=N)N)cc3)ccc2c1=O", 177],
  ["CCOC(=O)Cc1cc2ccc(NC(=O)c3ccc(C(=N)N)cc3)cc2cn1", 469]
]}

====

The reader will find reported Cmax values listed item by item below.
- Method Notes: Cmax(ng /mL)values after oral administration of 10 mg/kg in guinea pig.
- Type: ADME, organism-based, Cavia porcellus
- Set-up: dose 10 mg/kg, route oral
- Condition Notes: in vivo

{"columns": ["Compound", "Readout Units", "Cmax"],
 "data": [
  ["CCOC(=O)CC1CCc2cc(NC(=O)c3ccc(C(=N)N)cc3)ccc2C1 (centres undefined)", "ng/mL", 1170],
  ["N=C(N)c1ccc(C(=O)Nc2ccc3c(c2)CCC(CC(=O)O)C3)cc1 (centres undefined)", "ng/mL", 252],
  ["CCOC(=O)CC1CCc2cc(NC(=O)c3ccc(C(=N)N)cc3)ccc2C1=O (centres undefined)", "ng/mL", 1150],
  ["N=C(N)c1ccc(C(=O)Nc2ccc3c(c2)CCN(CC(=O)O)C3=O)cc1", "ng/mL", 126]
]}

====

Each entry below carries its reported IC50.
- Organism: Homo sapiens
- Method Notes: Concentration required to reduce ADP-induced platelet aggregation in platelet rich plasma by 50%.
- Format: functional

{"columns": ["Molecule", "Readout Units", "IC50"],
 "data": [
  ["N=C(N)c1ccc(C(=O)Nc2ccc3c(c2)CCC(CC(=O)O)C3=O)cc1 (centres undefined)", "µg/mL", 0.02],
  ["N=C(N)c1ccc(C(=O)Nc2ccc3c(c2)CCN(CC(=O)O)C3)cc1", "µg/mL", 0.06],
  ["N=C(N)c1ccc(C(=O)Nc2ccc3c(c2)CCC(CC(=O)O)O3)cc1 (centres undefined)", "µg/mL", 0.027]
]}
